# Test system: MCF7
# experimental_details: Cytotoxicity against human MCF7 cells after 24 hrs by MTT assay
# Assay type: functional, cell-based
# assay_setup: MCF7, 24 h, in the assay text read “XTT assay” for “MTT assay”
measure_name: pIC50
Scale: pIC50 equals -log10([C]), with [C] in mol/L.

Given `COc1cccc(N2CCN(CC(=O)N3CCN(c4nnc(-c5ccc(C)cc5)c(-c5ccc(C)cc5)n4)CC3)CC2)c1` , state its recorded pIC50. 3.06

Given `Cc1ccc(-c2nnc(N3CCN(C(=O)CN4CCN(c5cccc(Cl)c5)CC4)CC3)nc2-c2ccc(C)cc2)cc1` , state its recorded pIC50. 3.10

Given `Cc1ccc(-c2nnc(N3CCN(C(=O)CN4CCN(c5ccccc5)CC4)CC3)nc2-c2ccc(C)cc2)cc1` , state its recorded pIC50. 3.04

Given `COc1ccccc1N1CCN(CC(=O)N2CCN(c3nnc(-c4ccc(Cl)cc4)c(-c4ccc(Cl)cc4)n3)CC2)CC1` , state its recorded pIC50. 3.48

---

# Tested on: MCF7
# experimental_details: Cytotoxicity against human MCF7 cells after 24 hrs by MTT assay
# Format: functional, cell-based
# assay_setup: MCF7, 24 h, in the assay text read “XTT assay” for “MTT assay”
Hi there, I'd appreciate the recorded IC50 for every entry that follows.
// note: answer is a bare numeric in µM

Given `O=C(CN1CCN(c2cccc(Cl)c2)CC1)N1CCN(c2nnc(-c3ccccc3)c(-c3ccccc3)n2)CC1` , state its recorded IC50. 56.3

Given `COc1ccc(N2CCN(CC(=O)N3CCN(c4nnc(-c5ccc(C)cc5)c(-c5ccc(C)cc5)n4)CC3)CC2)cc1` , state its recorded IC50. 53

Given `COc1cccc(N2CCN(CC(=O)N3CCN(c4nnc(-c5ccc(Cl)cc5)c(-c5ccc(Cl)cc5)n4)CC3)CC2)c1` , state its recorded IC50. 149

Given `O=C(CN1CCN(c2ccc(Cl)cc2)CC1)N1CCN(c2nnc(-c3ccccc3)c(-c3ccccc3)n2)CC1` , state its recorded IC50. 56.3

Given `COc1ccccc1N1CCN(CC(=O)N2CCN(c3nnc(-c4ccc(C)cc4)c(-c4ccc(C)cc4)n3)CC2)CC1` , state its recorded IC50. 59.4

Given `O=C(CN1CCN(c2ccccc2Cl)CC1)N1CCN(c2nnc(-c3ccccc3)c(-c3ccccc3)n2)CC1` , state its recorded IC50. 263

Given `COc1ccc(-c2nnc(N3CCN(C(=O)CN4CCN(c5ccc(Cl)cc5)CC4)CC3)nc2-c2ccc(OC)cc2)cc1` , state its recorded IC50. 607

Given `COc1ccccc1N1CCN(CC(=O)N2CCN(c3nnc(-c4ccccc4)c(-c4ccccc4)n3)CC2)CC1` , state its recorded IC50. 167

---

Hi there, I'd appreciate the recorded IC50 for every entry that follows.
# Test system: MCF7
# experimental_details: Cytotoxicity against human MCF7 cells after 24 hrs by MTT assay
# Format: functional, cell-based
# assay_setup: MCF7, 24 h, in the assay text read “XTT assay” for “MTT assay”

Given `COc1ccc(-c2nnc(N3CCN(C(=O)CN4CCN(c5cccc(Cl)c5)CC4)CC3)nc2-c2ccc(OC)cc2)cc1` , state its recorded IC50. > 814 µM

Given `Cc1ccc(-c2nnc(N3CCN(C(=O)CN4CCN(c5ccc([N+](=O)[O-])cc5)CC4)CC3)nc2-c2ccc(C)cc2)cc1` , state its recorded IC50. 845 µM

Given `COc1ccc(N2CCN(CC(=O)N3CCN(c4nnc(-c5ccccc5)c(-c5ccccc5)n4)CC3)CC2)cc1` , state its recorded IC50. > 911 µM

Given `O=C(CN1CCN(c2ccc(Cl)cc2)CC1)N1CCN(c2nnc(-c3ccc(Cl)cc3)c(-c3ccc(Cl)cc3)n2)CC1` , state its recorded IC50. > 803 µM

Given `O=C(CN1CCN(c2ccccc2Cl)CC1)N1CCN(c2nnc(-c3ccc(Cl)cc3)c(-c3ccc(Cl)cc3)n2)CC1` , state its recorded IC50. 396 µM

Given `Cc1ccc(-c2nnc(N3CCN(C(=O)CN4CCN(c5ccccc5Cl)CC4)CC3)nc2-c2ccc(C)cc2)cc1` , state its recorded IC50. 859 µM

Given `Cc1ccc(-c2nnc(N3CCN(C(=O)CN4CCN(c5ccc(Cl)cc5)CC4)CC3)nc2-c2ccc(C)cc2)cc1` , state its recorded IC50. 660 µM

Given `COc1ccc(N2CCN(CC(=O)N3CCN(c4nnc(-c5ccc(Cl)cc5)c(-c5ccc(Cl)cc5)n4)CC3)CC2)cc1` , state its recorded IC50. > 809 µM

---

# System: MCF7
# experimental_details: Cytotoxicity against human MCF7 cells after 24 hrs by MTT assay
# Assay type: functional, cell-based
# assay_setup: MCF7, 24 h, in the assay text read “XTT assay” for “MTT assay”
Hi there, I'd appreciate the recorded IC50 for every entry that follows.

Given `O=C(CN1CCN(c2ccccc2)CC1)N1CCN(c2nnc(-c3ccc(Cl)cc3)c(-c3ccc(Cl)cc3)n2)CC1` , state its recorded IC50. > 850 µM

Given `O=C(CN1CCN(c2ccc([N+](=O)[O-])cc2)CC1)N1CCN(c2nnc(-c3ccc(Cl)cc3)c(-c3ccc(Cl)cc3)n2)CC1` , state its recorded IC50. > 790 µM

Given `O=C(CN1CCN(c2ccccc2)CC1)N1CCN(c2nnc(-c3ccccc3)c(-c3ccccc3)n2)CC1` , state its recorded IC50. > 963 µM

Given `COc1cccc(N2CCN(CC(=O)N3CCN(c4nnc(-c5ccccc5)c(-c5ccccc5)n4)CC3)CC2)c1` , state its recorded IC50. > 911 µM

---

Hi there, I'd appreciate the recorded IC50 for every entry that follows.
# System: MCF7
# experimental_details: Cytotoxicity against human MCF7 cells after 24 hrs by MTT assay
# Type: functional, cell-based
# assay_setup: MCF7, 24 h, in the assay text read “XTT assay” for “MTT assay”

Given `COc1ccc(-c2nnc(N3CCN(C(=O)CN4CCN(c5ccc(OC)cc5)CC4)CC3)nc2-c2ccc(OC)cc2)cc1` , state its recorded IC50. > 821 µM

Given `COc1ccc(-c2nnc(N3CCN(C(=O)CN4CCN(c5ccccc5OC)CC4)CC3)nc2-c2ccc(OC)cc2)cc1` , state its recorded IC50. > 821 µM

Given `COc1ccc(-c2nnc(N3CCN(C(=O)CN4CCN(c5ccc([N+](=O)[O-])cc5)CC4)CC3)nc2-c2ccc(OC)cc2)cc1` , state its recorded IC50. > 801 µM

Given `COc1ccc(-c2nnc(N3CCN(C(=O)CN4CCN(c5cccc(OC)c5)CC4)CC3)nc2-c2ccc(OC)cc2)cc1` , state its recorded IC50. > 821 µM

Given `O=C(CN1CCN(c2ccc([N+](=O)[O-])cc2)CC1)N1CCN(c2nnc(-c3ccccc3)c(-c3ccccc3)n2)CC1` , state its recorded IC50. > 886 µM

Given `COc1ccc(-c2nnc(N3CCN(C(=O)CN4CCN(c5ccccc5)CC4)CC3)nc2-c2ccc(OC)cc2)cc1` , state its recorded IC50. > 864 µM

Given `O=C(CN1CCN(c2cccc(Cl)c2)CC1)N1CCN(c2nnc(-c3ccc(Cl)cc3)c(-c3ccc(Cl)cc3)n2)CC1` , state its recorded IC50. > 803 µM

Given `COc1ccc(-c2nnc(N3CCN(C(=O)CN4CCN(c5ccccc5Cl)CC4)CC3)nc2-c2ccc(OC)cc2)cc1` , state its recorded IC50. > 814 µM
